Test system: PC-3 cells
test.name: Methylene blue survival assay
Assay type: cell-based
cond: Homo sapiens, 72-hr treatment, read-out: IC50 against PC-3 cells
Here, each record is paired with measured IC50 data.
Report the figure in µM without appending any unit label.

{"compound": "Fc1ccc(Nc2nc3ccccc3nc2Nc2ccc(F)cc2)cc1 [LQZ-7I]", "number": 4.8}

API: the following record is the query input.
(Q) IC50 lookup needed for Cc1cccc(Nc2nc3nonc3nc2N/N=C/c2ccc(-c3cccc(C(=O)O)c3)o2)c1C [LQZ-7] , thanks.
(A) 8.1
